meta.source: patent US20230080534A1

ASSAYED_SYSTEM: T1, human CD27 (HA-tagged, expressed in HEK293 cells) (human, UniProt P26842 20-260, limits assumed)
T1 construct: Plasmid printed as 'pcDNA3-HA-CD2'; not shown: HA tag
T1 sequence (looked up): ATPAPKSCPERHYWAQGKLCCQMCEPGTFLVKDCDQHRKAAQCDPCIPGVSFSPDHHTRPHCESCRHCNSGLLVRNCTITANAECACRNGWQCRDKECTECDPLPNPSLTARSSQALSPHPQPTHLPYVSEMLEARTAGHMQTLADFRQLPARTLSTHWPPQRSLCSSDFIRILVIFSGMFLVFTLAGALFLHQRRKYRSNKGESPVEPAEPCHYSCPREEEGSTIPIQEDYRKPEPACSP
METHOD: co-immunoprecipitation, HEK293 co-transfection
No end group written: not given here.

{"BINDER": "SEMG2-P1 fused with GFP (other, not shown: GFP fusion partner) GSFSIQHTYHVDINDHDWTRKSQQYDLNALHKATKSKQHLGGSQQLLNYKQEGRDHDKSKGHFHMIVIHHKGGQAHHGT", "binding result": "no binding"}
{"BINDER": "EQKGRYKQESSESHNIVITEHEVAQDDHLTQQYNEDRNPIST (other, also: fused to GFP, variant, linker and side of fusion not given here, not shown: GFP fusion partner) [SEMG2-P6 fused with GFP]", "binding result": "no binding"}
{"BINDER": "SEMG2-P3 fused with GFP (other, not shown: GFP fusion partner) KAHKISYPSSRTEERQLHHGEKSVQKDVSKGSISIQTEEKIHGKSQNQVTIHSQDQEHGHKENKISYQSSSTEERHLNCGEKGIQKGVSKGSISIQTEEQIHGKSQNQVRIPSQAQ", "binding result": "no binding"}
